target-of-assay: CYP2D6 (Homo sapiens, UniProt P10635)
Sequence (P10635 whole entry): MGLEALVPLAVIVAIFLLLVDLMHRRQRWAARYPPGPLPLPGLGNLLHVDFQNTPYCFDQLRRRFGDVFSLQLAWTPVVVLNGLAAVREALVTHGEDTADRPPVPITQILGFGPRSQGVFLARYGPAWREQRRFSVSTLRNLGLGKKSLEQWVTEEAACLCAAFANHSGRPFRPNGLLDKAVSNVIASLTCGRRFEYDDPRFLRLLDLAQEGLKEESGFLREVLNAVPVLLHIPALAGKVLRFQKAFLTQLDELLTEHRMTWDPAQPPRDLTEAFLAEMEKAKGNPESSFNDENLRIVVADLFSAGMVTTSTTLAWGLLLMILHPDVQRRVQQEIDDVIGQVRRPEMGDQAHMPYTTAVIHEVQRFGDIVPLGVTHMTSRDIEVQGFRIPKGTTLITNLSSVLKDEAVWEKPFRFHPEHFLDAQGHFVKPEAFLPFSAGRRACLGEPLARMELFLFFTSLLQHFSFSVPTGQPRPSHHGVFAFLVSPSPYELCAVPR
assay-remarks: Inhibition of human CYP2D6 at 10 uM relative to control
Format: ADME
property-name: inhibition at 10 µM

- O=C(O)c1c(Nc2cccc(F)c2)[nH]c2cc(Cl)ccc2c1=O: 3%

---

assay-remarks: Selectivity index, ratio of CC50 for african green monkey Vero cells to EC50 for Severe acute respiratory syndrome coronavirus 2
Type: toxicity
condition-description: read-out: Ratio CC50/EC50
The entries below are paired with their reported selectivity ratio.
property-name: selectivity ratio

* COC(=O)c1c([S+](C)[O-])[nH]c2ccccc2c1=O (stereo not drawn) | 1.9
* O=C(O)c1c(Nc2cccc(F)c2)[nH]c2cc(F)c(F)cc2c1=O | 7.5
* O=c1cc(Nc2cccc(F)c2)[nH]c2cc(F)c(F)cc12 | 1
* COc1ccc2[nH]c(Nc3cccc(F)c3)c(C(=O)O)c(=O)c2c1 | 7.6
* O=C(O)c1c(Nc2cccc(F)c2)[nH]c2ccccc2c1=O | 6.2
* CNC(=O)c1c(Nc2cccc(F)c2)[nH]c2cc(Cl)ccc2c1=O | 3.2
* O=C(O)c1c(NC2CCCCC2)[nH]c2cc(Cl)ccc2c1=O | 5.7
* CN(C)CCCNc1[nH]c2cc(Cl)ccc2c(=O)c1C(=O)O | 1
